Experiment: Cytotoxicity against human ME180 cells after 48 hrs by MTT assay
Format: functional, cell-based
Settings: ME-180, 48 h
assayReadout: IC50

COC(=O)[C@]12CCC(C)(C)C[C@H]1C1=CC[C@@H]3[C@@]4(C)Cc5c(noc5-c5ccccc5)C(C)(C)[C@@H]4CC[C@@]3(C)[C@]1(C)CC2 = > 100 µM

# IC50 (molecule: COc1cccc2c1C(=O)c1c(O)c3c(c(O)c1C2=O)C[C@@](O)(C(=O)CO)C[C@@H]3O[C@H]1C[C@H](N)[C@H](O)[C@H](C)O1 [DOXORUBICIN] ) is 0.39 µM

# IC50 (molecule: "COC(=O)[C@]12CCC(C)(C)C[C@H]1C1=CC[C@@H]3[C@@]4(C)CCC(=O)C(C)(C)[C@@H]4CC[C@@]3(C)[C@]1(C)CC2" ) is > 100 µM

---

pIC50 by entry:
Tested on: HeLa
Experiment: Cytotoxicity against human HeLa cells after 48 hrs by MTT assay
Format: functional, cell-based
pIC50: −log10 of the molar value.

The measured pIC50 that "COC(=O)[C@]12CCC(C)(C)C[C@H]1C1=CC[C@@H]3[C@@]4(C)Cc5c(noc5-c5ccccc5)C(C)(C)[C@@H]4CC[C@@]3(C)[C@]1(C)CC2" showed for HeLa is < 4.00

The measured pIC50 that "COC(=O)[C@]12CCC(C)(C)C[C@H]1C1=CC[C@@H]3[C@@]4(C)C[C@@H]5C(=NN[C@H]5c5ccccc5)C(C)(C)[C@@H]4CC[C@@]3(C)[C@]1(C)CC2" showed for HeLa is < 4.00

The measured pIC50 that "COC(=O)[C@]12CCC(C)(C)C[C@H]1C1=CC[C@@H]3[C@@]4(C)CCC(=O)C(C)(C)[C@@H]4CC[C@@]3(C)[C@]1(C)CC2" showed for HeLa is < 4.00

The measured pIC50 that "COC(=O)[C@]12CCC(C)(C)C[C@H]1C1=CC[C@@H]3[C@@]4(C)Cc5c(nn(-c6ccccc6)c5-c5ccccc5)C(C)(C)[C@@H]4CC[C@@]3(C)[C@]1(C)CC2" showed for HeLa is < 4.00

The measured pIC50 that "COC(=O)[C@]12CCC(C)(C)C[C@H]1C1=CC[C@@H]3[C@@]4(C)Cc5c(-c6ccccc6)nc(=O)[nH]c5C(C)(C)[C@@H]4CC[C@@]3(C)[C@]1(C)CC2" showed for HeLa is < 4.00

The measured pIC50 that COc1cccc2c1C(=O)c1c(O)c3c(c(O)c1C2=O)C[C@@](O)(C(=O)CO)C[C@@H]3O[C@H]1C[C@H](N)[C@H](O)[C@H](C)O1 [DOXORUBICIN] showed for HeLa is 6.44

---

Tested on: PC-3
Assay: Cytotoxicity against human PC3 cells after 48 hrs by MTT assay
Assay type: functional, cell-based
Details: PC-3, 48 h
assayReadout: IC50

COC(=O)[C@]12CCC(C)(C)C[C@H]1C1=CC[C@@H]3[C@@]4(C)C[C@@H]5C(=NN[C@H]5c5ccccc5)C(C)(C)[C@@H]4CC[C@@]3(C)[C@]1(C)CC2 = > 100 µM
COC(=O)[C@]12CCC(C)(C)C[C@H]1C1=CC[C@@H]3[C@@]4(C)Cc5c(nn(-c6ccccc6)c5-c5ccccc5)C(C)(C)[C@@H]4CC[C@@]3(C)[C@]1(C)CC2 = > 100 µM
COC(=O)[C@]12CCC(C)(C)C[C@H]1C1=CC[C@@H]3[C@@]4(C)Cc5c(-c6ccccc6)nc(=S)[nH]c5C(C)(C)[C@@H]4CC[C@@]3(C)[C@]1(C)CC2 = > 100 µM
COC(=O)[C@]12CCC(C)(C)C[C@H]1C1=CC[C@@H]3[C@@]4(C)Cc5c(-c6ccccc6)nc(N)nc5C(C)(C)[C@@H]4CC[C@@]3(C)[C@]1(C)CC2 = 75.3 µM
COc1cccc2c1C(=O)c1c(O)c3c(c(O)c1C2=O)C[C@@](O)(C(=O)CO)C[C@@H]3O[C@H]1C[C@H](N)[C@H](O)[C@H](C)O1 [DOXORUBICIN] = 0.19 µM

API: the following record is the query input.
# IC50 (compound: "COC(=O)[C@]12CCC(C)(C)C[C@H]1C1=CC[C@@H]3[C@@]4(C)C/C(=C\c5ccccc5)C(=O)C(C)(C)[C@@H]4CC[C@@]3(C)[C@]1(C)CC2" ) is > 100 µM

---

Experiment: Cytotoxicity against human ME180 cells after 48 hrs by MTT assay
Type: functional, cell-based
Conditions: ME-180, 48 h
IC50 by entry:

Sample records with IC50:
COC(=O)[C@]12CCC(C)(C)C[C@H]1C1=CC[C@@H]3[C@@]4(C)Cc5c(-c6ccccc6)nc(=S)[nH]c5C(C)(C)[C@@H]4CC[C@@]3(C)[C@]1(C)CC2 = > 100 µM
CC1(C)CC[C@]2(C(=O)O)CC[C@]3(C)C(=CC[C@@H]4[C@@]5(C)CC[C@H](O)C(C)(C)[C@@H]5CC[C@]43C)[C@@H]2C1 = > 100 µM

API: the following record is the query input.
# IC50 (compound: "COC(=O)[C@]12CCC(C)(C)C[C@H]1C1=CC[C@@H]3[C@@]4(C)Cc5c(nn(-c6ccccc6)c5-c5ccccc5)C(C)(C)[C@@H]4CC[C@@]3(C)[C@]1(C)CC2" ) is > 100 µM

---

IC50 by entry:
Test system: PC-3
Experiment: Cytotoxicity against human PC3 cells after 48 hrs by MTT assay
Type: functional, cell-based
Details: PC-3, 48 h

Sample records with IC50:
COC(=O)[C@]12CCC(C)(C)C[C@H]1C1=CC[C@@H]3[C@@]4(C)Cc5c(noc5-c5ccccc5)C(C)(C)[C@@H]4CC[C@@]3(C)[C@]1(C)CC2 = > 100 µM
COC(=O)[C@]12CCC(C)(C)C[C@H]1C1=CC[C@@H]3[C@@]4(C)CCC(=O)C(C)(C)[C@@H]4CC[C@@]3(C)[C@]1(C)CC2 = > 100 µM

# IC50 (molecule: "CC1(C)CC[C@]2(C(=O)O)CC[C@]3(C)C(=CC[C@@H]4[C@@]5(C)CC[C@H](O)C(C)(C)[C@@H]5CC[C@]43C)[C@@H]2C1" ) is > 100 µM

The reported numbers originate from ChEMBL document CHEMBL3112475.
